Here, each record is paired with measured pKd data.
# TARGET_ENTITY: Dupixent (IgG4 monoclonal antibody)
# ASSAY_NAME: BLI, biotinylated ligand on sensor; 'Binding affinity (nM)'
Remember the convention: pKd equals -log10 of concentration in molar.

Example entries and their recorded answers appear below.
- BINDER: "affinity ligand SEQ ID NO: 164 (designed binder, biotinylated (AviTag system)) MGDEAERWYDLGAAYAARGDYDRAIEYYQRALELDPNDAWAWWELGVAYAARGDYDRAIEYYQRALELDLNNAVAWARLGIAYAARGDYDRAIEYYQRALELDPNNEVARDALEYARRARRC"
  pKd: 7.09
- BINDER: "affinity ligand SEQ ID NO: 156 (designed binder, biotinylated (AviTag system)) MAWAEFRQRLAAIRTRLEALGGSEAELAAFEREIAAFESELQAYAGAGNPEVEALRREAAAIRDELQAYRHNDEAERWYDLGAAYAARGDYDRAIEYYQRALEHDPNDAWAWWELGVAYAARGDYDRAIEYYQRALELDTNNAVAWARLGIAYAARGDYDRAIEYYQRALELDPNNEVARGALEYARRARRHHHHHH"
  pKd: 8.15
- BINDER: "affinity ligand SEQ ID NO: 159 (designed binder, biotinylated (AviTag system)) MGHHHHHHDEAERWYDLGAAYAARGDYDRAIEYYQRALEHDPNDAWAWWELGVAYAARGDYDRAIEYYQRALELDTNNAVAWARLGIAYAARGDYDRAIEYYQRALELDPNNEVARGALEYARRARRC"
  pKd: 8.05
- BINDER: "affinity ligand SEQ ID NO: 160 (designed binder, biotinylated (AviTag system)) MGHHHHHHDEAERWYDLGAAYAARGDYDRAIEYYQRALELDPNDAWAWWELGVAYAARGDYDRAIEYYQRALELDLNNAVAWARLGIAYAARGDYDRAIEYYQRALELDPNNEVARDALEYARRARRC"
  pKd: 7.62
- BINDER: "affinity ligand SEQ ID NO: 171 (designed binder, biotinylated (AviTag system)) MGDEADRWYYQGAAYAARGDYDRAIEYYERALELDPNNAWAWWELGVAYAARGDYDRAIEYYQRALELDPNDAVAWARLGHAYAARGDYDRAIEYYQRALELDPNNEAARSNLEYARRAAACGLNDIFEAQKIEWHEHHHHHH"
  pKd: 6.62
- BINDER: "affinity ligand SEQ ID NO: 158 (designed binder, biotinylated (AviTag system)) MGDEAERWYDLGAAYAARGDYDRAIEYYQRALELDPNDAWAWWELGVAYAARGDYDRAIEYYQRALELDLNNAVAWARLGIAYAARGDYDRAIEYYQRALELDPNNEVARDALEYARRARRCHHHHHH"
  pKd: 6.75

# input for lookup
// pKd lookup, key: affinity ligand SEQ ID NO: 161 (designed binder, biotinylated (AviTag system)) MAWAEFRQRLAAIRTRLEALGGSEAELAAFEREIAAFESELQAYAGAGNPEVEALRREAAAIRDELQAYRHNDEAERWYDLGAAYAARGDYDRAIEYYQRALELDPNDAWAWWELGVAYAARGDYDRAIEYYQRALELDLNNAVAWARLGIAYAARGDYDRAIEYYQRALELDPNNEVARDALEYARRARRHHHHHH 7.51
